experiment: probe aShh binding to arrayed compounds – biochemical, biotinylated probe, 635/667 nm fluorescence, primary screen (AID 1114); conditions: small-molecule microarray, higher = more signal;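 also: probe is biotin-labelled aShh protein from a stem cell growth factor screen; measures binding of labelled protein to compounds printed on the slide; score merges feature fluorescence at 667 nm with signal-to-noise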
Readout: composite z-score
Answer with the value's number alone.

- O=C(NCC(O)CO)[C@@]1(Cc2ccccc2)COC(c2ccc(OCCCO)cc2)=N1 (some centres not stated): -0.283
- COCCOC(=O)N1C(=O)[C@@]2(c3cc(C#Cc4ccc(OC)cc4)ccc31)[C@H](c1ccc(OCCO)cc1)N1[C@H](c3ccccc3)[C@H](c3ccccc3)OC(=O)[C@H]1[C@@H]2C(=O)N1CCc2cc(OC)c(OC)cc2C1: -0.0824
- CC(C)[Si]1(C(C)C)O[C@@H](c2ccccc2)c2cc(-c3ccc(-c4ccc(Cl)c(Cl)c4)o3)nc(CCc3ccccc3)c21: 0.0141
- COC(=O)[C@@]1(Cc2ccccc2)[C@H]2c3cc(C(=O)N(C)C)n(Cc4cc(F)c(F)c(F)c4)c3C[C@H]2CN1C(=O)c1ccccc1: 0.415

Ask: So what does the record say about composite z-score for CCCC[C@@H]1C[C@H]1[C@@H](NC(=O)c1ccco1)c1ccccc1 ?
Reply: 0.108

Ask: Item: COc1ccc(C(O)C2C=CC3C(=O)N(c4ccccc4)C(=O)C3N2Nc2ccccc2)c2ccccc12 (configuration not stated)
Reply: -0.218

Ask: Entry to check: COc1ccc([Si](C)(C)[C@H]2[C@H](CC(=O)N3CCC[C@H]3CO)O[C@@]3(C(=O)N(c4ccccc4)c4ccccc43)[C@@H]2C)cc1
Reply: -0.13
